Test: Hemolytic activity in mouse RBC at 500 uM after 1 hr relative to control
Type: ADME, cell-based, Erythrocyte
Details: red blood cells (erythrocytes), read-out: Activity
Peptide text beside a SMILES is read from it.
quantity.measured: hemolysis at 1 h, 500 µM (%)
Value expressed in %; do not type the unit.

{"molecule": "CC(=O)N[C@@H](Cc1ccc(O)cc1)C(=O)NCC(=O)N[C@@H](CCCNC(=N)N)C(=O)N[C@@H](CCCCN)C(=O)N[C@@H](CCCCN)C(=O)N[C@@H](CCCNC(=N)N)C(=O)N[C@@H](CCCNC(=N)N)C(=O)N[C@@H](CCC(N)=O)C(=O)N[C@@H](CCCNC(=N)N)C(=O)N[C@@H](CCCNC(=N)N)C(=O)N[C@@H](CCCNC(=N)N)C(=O)NCC(=O)NCC(=O)NCC(=O)N[C@@H](CC(C)C)C(=O)N[C@@H](CC(C)C)C(=O)N[C@H](C=O)CC(C)C (Ac-YGRKKRRQRRRGGGLLL-aldehyde)", "reading.unit": "%", "hemolysis at 1 h, 500 µM": 1}

Moving on to the next molecule.
Data request: Look up hemolysis at 1 h, 500 µM: CC(=O)N[C@@H](Cc1ccc(O)cc1)C(=O)NCC(=O)N[C@@H](CCCNC(=N)N)C(=O)N[C@@H](CCCCN)C(=O)N[C@@H](CCCCN)C(=O)N[C@@H](CCCNC(=N)N)C(=O)N[C@@H](CCCNC(=N)N)C(=O)N[C@@H](CCC(N)=O)C(=O)N[C@@H](CCCNC(=N)N)C(=O)N[C@@H](CCCNC(=N)N)C(=O)N[C@@H](CCCNC(=N)N)C(=O)NCC(=O)NCC(=O)NCC(=O)N[C@@H](Cc1ccc(O)cc1)C(=O)N[C@@H](CC(C)C)C(=O)N[C@@H](Cc1ccccc1)C(=O)N[C@H](C=O)CC(C)C (Ac-YGRKKRRQRRRGGGYLFL-aldehyde)
Data returned: 12
